Target: Lysine-specific demethylase 4A (Homo sapiens)
Assay: qHTS Assay for Inhibitors of JMJD2A-Tudor Domain; note: nearly all actives have a fitted effect of over 50% in size; note: potency is the fitted concentration of half-maximal effect
Details: AlphaScreen JMJD2A-Tudor / H3K4me3 peptide binding; series mostly up to 114 µM
Description: JMJD2A is a jumonji-domain-containing lysine demethylase that uses Fe(II) together with 2-OG to effect oxidative demethylation of histones. Methylation is one of many […] modification that affect epigenetic transcription. […] A quantitative high throughput AlphaScreen has been developed to identify small molecule inhibitors based on a protocol published by NCGC and SGC [4]. […] [2] Yasgar, et al. Compound Management for Quantitative High-Throughput Screening. […]
About 17,000 (4.4%) of roughly 390,000 compounds were called active. Inconclusive results (about 8%) are left out. The full list was thinned out, with actives kept by preference.
reported.metric: Potency

Previously resolved entries follow.
Form field - read-out: Potency; system: Lysine-specific demethylase 4A (Homo sapiens); submitted item: "CCCCc1nc2ccccc2c(NC(=O)CN2CCN(C)CC2)c1CCC"
0.708 µM (active)

What reported Potency corresponds to "O=[N+]([O-])c1ccccc1S(=O)(=O)Nc1cccc2cccnc12" on Lysine-specific demethylase 4A (Homo sapiens)?
56.2 µM (active)

Notebook: pull reported Potency for Lysine-specific demethylase 4A (Homo sapiens), entry "CCOC(=O)c1c(S(=O)(=O)N2CCC(C(=O)NCc3ccccc3OC)CC2)c(C)n(C)c1C"
inactive

Lab note: need Potency with Lysine-specific demethylase 4A (Homo sapiens) for entry "O=C(CS(=O)(=O)c1cccc2nsnc12)N1CCN(c2cccc(Cl)c2)CC1" , please look it up.
inactive

More entries:
Checklist item: Potency tested on Lysine-specific demethylase 4A (Homo sapiens), entry Cc1c(CC(=O)N2CCN(C(=O)C3COc4ccccc4O3)CC2)c(=O)oc2c(O)c(O)ccc12 (stereo unspecified) , value?
2.82 µM (active)

Observed Potency on Lysine-specific demethylase 4A (Homo sapiens) for "O=S(=O)(Nc1cccc2cccnc12)c1cccc2cccnc12" , please.
inactive

GET /values?readout=Potency&system=Lysine-specific demethylase 4A (Homo sapiens)&item= Cc1ccc(CCNC(=O)c2ccc3c(c2)nc2n3CCC(C)C2)cc1 (stereo unspecified)
inactive

Lab note: need Potency with Lysine-specific demethylase 4A (Homo sapiens) for entry O=C(NCCCc1ccccc1)C(=O)NCC1OCCN1S(=O)(=O)c1ccccc1 (stereo unspecified) , please look it up.
inactive

Param readout= Potency; system= Lysine-specific demethylase 4A (Homo sapiens); entry= Cc1cc(F)ccc1S(=O)(=O)N1CCCOC1CNC(=O)C(=O)NCCC1=CCCCC1 (stereo unspecified) ; returns value.
inactive

###

target: Lysine-specific demethylase 4A (Homo sapiens); assay: qHTS Assay for Inhibitors of JMJD2A-Tudor Domain; details: AlphaScreen JMJD2A-Tudor / H3K4me3 peptide binding; series mostly up to 114 µM; note: nearly all actives have a fitted effect of over 50% in size
The whole screen tested about 390,000 compounds, of which about 17,000 (4.4%) were called active. Inconclusive results (about 8%) are left out. Calls come from the whole dose curve; as a rule, active = well fitted inhibition curve with a large enough effect; inconclusive = small, poorly fitted or top-dose-only effect; inactive = no such curve, though single readings can be large or run the other way. Shown is part of a subset that was picked to be rich in actives.
Reply using exactly one outcome from True (active), False (inactive)

Recorded test outcome, item "S=c1[nH]nc2c3c4c(sc3ncn12)CCCC4"
True

Just curious, what result did "CCc1ccccc1NC(=O)c1cnn(-c2ccc(F)cc2)c1C1CCNCC1" get here?
False

Could you kindly confirm the outcome this assay logged for "CCOc1ccc(NC(=O)Cn2cc(C(=O)c3ccc(C)cc3)c(=O)c3cc4c(cc32)OCCO4)cc1" ?
False

What call does the record list for "N=c1c2c3c(sc2ncn1CCCN1CCOCC1)CCCCC3" ?
False

Dear colleague, could you share the recorded outcome for "Cc1ccc2cccc(NC(=O)c3ccc(OC(C)C)cc3)c2n1" when you have a moment?
False

Others:
Please state the recorded outcome for this compound: Cc1cc(C)cc(OC(C)C(=O)Nc2nc3c(s2)CCCC3)c1 (stereo not given)
False

Outcome logged for CCN(CC)S(=O)(=O)c1ccc2c(c1)N(CC(=O)NCC(C)c1ccccc1)C(=O)CO2 (stereo not given) in this assay:
False

# fetch the recorded call for CCC(C)(C)NC(=O)C(c1cccc(OC)c1OC)N(CC(C)C)C(=O)CCC(=O)Nc1cc(C)on1 (stereo not given) here
True

Could you please tell me the result logged for CC(C(=O)O)n1cnc2sc3c(c2c1=O)CCCC3 (stereo not given) in this assay?
False

Recorded call for "CCCCN(CC)CCCNC(=O)c1nn(C)c2c1CS(=O)(=O)c1ccccc1-2" ?
False

###

molecular target: Lysine-specific demethylase 4A (Homo sapiens); assay: qHTS Assay for Inhibitors of JMJD2A-Tudor Domain; details: AlphaScreen JMJD2A-Tudor / H3K4me3 peptide binding; series mostly up to 114 µM; note: nearly all actives have a fitted effect of over 50% in size
The campaign covered roughly 390,000 compounds. About 17,000 (4.4%) were called active. Not shown: some 8% with an inconclusive outcome. The call rests on the fitted dose curve; in most records, active means well fitted inhibition curve with a large enough effect; inconclusive means small, poorly fitted or top-dose-only effect; inactive means no such curve, though single readings can be large or run the other way. Shown is part of a subset that was picked to be rich in actives.
The reply should be one of these categories: active, inactive

Previously resolved entries follow.
Record request — test call for "CCOC(=O)c1cnc(SCC(=O)Nc2ccccc2C(=O)OC)nc1N"
inactive

Hi, do you know how Oc1c(C(c2ccccc2Cl)N2CCOCC2)sc2nc(-c3ccco3)nn12 (stereo not given) came out in this test?
inactive

Could you please tell me the result logged for "COc1ccc2nc(N3CCN(C(=O)c4ccc([N+](=O)[O-])o4)CC3)sc2c1" in this assay?
inactive

Returns: the outcome recorded for "CCOC(=O)COc1nc(C)cc(C(F)(F)F)c1C#N" in this assay.
inactive

Next:
Dear colleague, could you share the recorded outcome for COc1ccc2nc(N3C(=O)C(O)=C(C(=O)c4ccco4)C3c3ccco3)sc2c1 (stereo not given) when you have a moment?
active

###

molecular target: Lysine-specific demethylase 4A (Homo sapiens); experiment: qHTS Assay for Inhibitors of JMJD2A-Tudor Domain; details: AlphaScreen JMJD2A-Tudor / H3K4me3 peptide binding; series mostly up to 114 µM; note: nearly all actives have a fitted effect of over 50% in size
The campaign covered roughly 390,000 compounds. About 17,000 (4.4%) were called active. Inconclusive results (about 8%) are left out. Calls come from the whole dose curve; as a rule, active = well fitted inhibition curve with a large enough effect; inconclusive = small, poorly fitted or top-dose-only effect; inactive = no such curve, though single readings can be large or run the other way. The entries come from a sample that favours actives as a whole.
The reply should be one of these categories: yes (1) (active), no (0) (inactive)

Example entries and their recorded answers appear below.
Answer briefly: the call reported for CC(C)(C)c1ccc(C(=O)NCC(c2ccco2)S(=O)(=O)c2ccc(F)cc2)cc1 (stereo unspecified) in this assay.
no (0)

Hello, I am checking results. What call was entered for "CSc1nnc(SCc2nc3sc(C(=O)O)c(C)c3c(=O)[nH]2)s1" ?
yes (1)

// outcome(item) with item = "CC1=C(c2ccc(C)cc2)S(=O)(=O)NC1=NCCCN1CCN(c2cc(C)ccc2C)CC1"
no (0)

How did this test come out for "CCc1c(Nc2ccccc2C)nc(N)[nH]c1=O" ?
no (0)

New cases:
Status in this test for CC(C)OP(=O)(OC(C)C)C(Nc1ccccc1)c1cccc([N+](=O)[O-])c1 (stereo unspecified) ?
no (0)

// return assay outcome for CC(Nc1ccc([N+](=O)[O-])cc1[N+](=O)[O-])c1ccccc1 (stereo unspecified)
yes (1)

I would be grateful if you could indicate the recorded call for "CCOC(=O)c1sc2nc(CSCC(=O)OCc3ccc(C(=O)OC)o3)[nH]c(=O)c2c1C" .
no (0)

How was "Cc1cc([N+](=O)[O-])ccc1NS(=O)(=O)c1ccccc1" classified in this test?
no (0)

###

molecular target: Lysine-specific demethylase 4A (Homo sapiens) (UniProt O75164); test: qHTS Assay for Inhibitors of JMJD2A-Tudor Domain; conditions: AlphaScreen JMJD2A-Tudor / H3K4me3 peptide binding; series mostly up to 114 µM; note: nearly all actives have a fitted effect of over 50% in size
Sequence (O75164 whole entry, looked up, the tested form may be a part): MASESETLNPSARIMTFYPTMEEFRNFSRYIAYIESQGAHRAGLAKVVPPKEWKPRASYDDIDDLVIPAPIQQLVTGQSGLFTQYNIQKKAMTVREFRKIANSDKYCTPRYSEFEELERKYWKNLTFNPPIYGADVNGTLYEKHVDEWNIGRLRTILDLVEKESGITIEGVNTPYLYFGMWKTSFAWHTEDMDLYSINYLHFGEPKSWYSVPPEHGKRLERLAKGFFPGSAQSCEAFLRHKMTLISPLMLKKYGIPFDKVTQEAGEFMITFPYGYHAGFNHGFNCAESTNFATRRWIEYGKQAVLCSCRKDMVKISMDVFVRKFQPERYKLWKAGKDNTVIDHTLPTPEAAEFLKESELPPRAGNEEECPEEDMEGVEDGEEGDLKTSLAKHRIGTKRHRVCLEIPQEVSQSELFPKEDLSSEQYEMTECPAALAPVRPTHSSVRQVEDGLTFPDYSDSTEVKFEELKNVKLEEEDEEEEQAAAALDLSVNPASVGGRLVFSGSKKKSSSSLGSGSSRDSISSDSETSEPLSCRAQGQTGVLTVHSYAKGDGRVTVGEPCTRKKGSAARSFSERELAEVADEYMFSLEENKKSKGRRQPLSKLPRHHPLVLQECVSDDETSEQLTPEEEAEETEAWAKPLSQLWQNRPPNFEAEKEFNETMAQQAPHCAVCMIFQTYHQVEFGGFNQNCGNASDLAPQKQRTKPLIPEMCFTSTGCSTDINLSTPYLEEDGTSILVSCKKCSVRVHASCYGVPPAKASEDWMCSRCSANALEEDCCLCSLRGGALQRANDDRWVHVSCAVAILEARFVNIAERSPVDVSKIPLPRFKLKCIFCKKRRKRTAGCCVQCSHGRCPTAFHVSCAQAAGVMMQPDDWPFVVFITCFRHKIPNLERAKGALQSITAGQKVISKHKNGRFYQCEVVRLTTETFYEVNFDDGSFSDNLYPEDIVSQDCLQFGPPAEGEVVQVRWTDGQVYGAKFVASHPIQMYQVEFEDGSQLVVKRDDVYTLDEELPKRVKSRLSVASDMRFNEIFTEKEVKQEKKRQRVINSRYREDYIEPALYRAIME
Screen size: about 390,000 compounds; about 17,000 (4.4%) were called active. About 8% were inconclusive and are not listed. Calls follow the shape of the dose curve; as a rule, active = well fitted inhibition curve with a large enough effect; inconclusive = small, poorly fitted or top-dose-only effect; inactive = no such curve, though single readings can be large or run the other way. Many of the other results were omitted from the sample, so actives are more common in it than they were.
A correct response names exactly one class from active, inactive

The examples below pair each entry with its known result.
Tell me the recorded outcome of this test for "CCOc1cccc(-c2nn3c(-c4ccccn4)nnc3s2)c1" .
active

How was "O=S(=O)(c1ccc(Cl)cc1)c1nnn2c1nc(NC1CCCC1)c1sccc12" classified in this test?
inactive

For "Cc1ccc(-n2c(SCC(=O)c3ccccc3)nc3c([nH]c4ccccc43)c2=O)cc1" , what call appears in the results of this test?
inactive

Which outcome was assigned to "C#CCOCCOCCOCCNc1nc(N2CCN(C(=O)CCCCCCCCCCNC(=O)[C@H]([C@@H](C)CC)n3cc(CCCCN=C(N)N)nn3)CC2)nc(N2CCN(C(=O)CCCCCCCCCCNC(=O)[C@H](CO)n3cc(CCCSC)nn3)CC2)n1" in this test?
active

How did this test come out for "CCOC(=O)c1ccc(CSc2nnc3cc(C)c4ccccc4n23)cc1" ?
inactive

I'd appreciate the recorded outcome for "CCOc1ccc(N2C(=O)CN(c3cccc4ccccc34)C2=S)cc1" from this test.
inactive

// outcome(item) with item = "C=CC[n+]1c(-c2ccc(C)cc2)csc1NNC(=O)Nc1ccccc1"
active

Assay outcome for "CCOC(=O)c1c(SCC(=O)Nc2cccc(C)c2C)nc(=O)[nH]c1C" : what was it?
inactive

Dear all, I need the recorded test outcome for CC1=C(C(=O)OCc2ccc(C)cc2)C(c2ccccc2Cl)CC(=O)N1 (stereo not drawn) , thank you.
inactive

How did this test come out for "COc1ccccc1CNC(=O)CCCCn1c(=O)c2ccccc2n(CC(=O)Nc2cc(Cl)ccc2C)c1=O" ?
inactive

Next:
In this assay, the call recorded for CC1CCCN(c2cc3c(cc2F)c(=O)c(S(=O)(=O)c2cccc(Cl)c2)cn3Cc2ccccc2)C1 (stereo not drawn) was what?
inactive

In this assay, the call recorded for "Cc1cccc(NC(=O)c2nnn(CC(=O)Nc3ccc(C(C)C)cc3)c2N)c1C" was what?
inactive

What did the test return for "CCNC(=S)NNC(=O)C1CCN(Cc2ccccc2)CC1" ?
inactive

# lookup: test call for "CCOc1ccc(CCNC(=O)c2csc3c2CCCCC3)cc1"
inactive

// outcome(item) with item = "COc1ccc(S(=O)(=O)NCC(=O)NC2CC2)cc1OC"
inactive

Dear colleague, could you share the recorded outcome for "CCCC(=O)Nc1cc(C(=O)NCc2ccc(OC)cc2)ccc1S(=O)(=O)c1ccc(Cl)cc1" when you have a moment?
inactive

Could you please tell me the result logged for "C#CCOCCOCCOCCNc1nc(N2CCN(C(=O)[C@H](C(C)C)n3cc(CCO)nn3)CC2)nc(N2CCN(C(=O)[C@H](C(C)C)n3cc(CCO)nn3)CC2)n1" in this assay?
inactive

So what was the verdict on COc1ccc(CCNC(=O)C(=O)NCC(c2ccco2)S(=O)(=O)c2cccs2)cc1OC (stereo not drawn) in this test?
inactive

Record request — test call for C=CCC(Nc1ccccc1)c1cccc(OC)c1OC (stereo not drawn)
inactive

Given "COc1cc(OC)c(C(=O)Nc2ccccc2-c2ccccc2)cc1OC" , state the outcome it received in this test.
inactive

Could you please tell me the result logged for "C#CCOCCOCCOCCNc1nc(N2CCN(C(=O)CCCCCCCCCCNC(=O)Cn3cc(CCCCCN)nn3)CC2)nc(N2CCN(C(=O)CCCCCCCCCCNC(=O)[C@H](CO)n3cc(CCCSC)nn3)CC2)n1" in this assay?
active

Could you please tell me the result logged for "CCOc1cccc(-c2nnc(SCC(=O)NC3CC3)n2C)c1" in this assay?
inactive

Write down the call the test reported for this molecule. Item: "O=C(OCCN1CCOCC1)C1(c2ccccc2)CCCCC1"
inactive
